TARGET: T1, human TIGIT over-expressed on cells (human, UniProt Q495A1 22-244)
T1 construct: also called CHO-K1/human TIGIT cells; CHO cells expressing human TIGIT
T1 sequence: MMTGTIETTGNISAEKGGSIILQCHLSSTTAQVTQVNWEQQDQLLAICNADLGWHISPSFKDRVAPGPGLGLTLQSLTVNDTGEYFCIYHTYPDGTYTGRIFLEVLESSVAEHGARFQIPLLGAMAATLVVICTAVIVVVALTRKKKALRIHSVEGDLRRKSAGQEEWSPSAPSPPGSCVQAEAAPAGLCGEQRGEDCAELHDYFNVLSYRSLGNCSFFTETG
METHOD: FACS, CHO-K1 cells over-expressing human TIGIT
ASSAY METRIC: Top (best-fit)

100C4E7D11VH1_VL1 (antibody, V domains shown, Humanized antibody, variable domains fused with the constant region of human IgG1; also called 100C4VH1_VL1) VH: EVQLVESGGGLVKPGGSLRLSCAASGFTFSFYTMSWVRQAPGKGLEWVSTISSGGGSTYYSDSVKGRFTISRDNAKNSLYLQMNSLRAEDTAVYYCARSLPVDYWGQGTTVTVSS VL: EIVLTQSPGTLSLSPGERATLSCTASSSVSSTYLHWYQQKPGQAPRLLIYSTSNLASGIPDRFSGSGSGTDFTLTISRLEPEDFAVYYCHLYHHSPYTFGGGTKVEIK ... 25200
